Each entry below carries its recorded pIC50.
- System: HL-60
- Protocol text: CellTiter-Glo cell viability assay, HL-60
- Assay type: cell-based
- Assay context: Homo sapiens, HL-60; Leukemia; 72 hrs; 50% growth inhibition relative to control; read-out: HL-60 IC50
Bear in mind: pIC50 is minus log10 of a mol/L concentration; give just that figure.

Here's what some known entries look like.
molecule=O=C(Cc1cc(Nc2ncnc3cc(-c4ccc(C(=O)N5CCN(CCO)CC5)cc4)ccc23)n[nH]1)Nc1cccc(F)c1 subject_of_test=HL-60 measured_metric=pIC50 measured=8.88
molecule=O=C(Cc1cc(Nc2ncnc3cc(-c4ccc(S(=O)(=O)N5CC[C@@H](F)C5)cc4)ccc23)n[nH]1)Nc1cccc(F)c1 subject_of_test=HL-60 measured_metric=pIC50 measured=8.65
molecule=O=C(Cc1cc(Nc2ncnc3cc(-c4ccc(S(=O)(=O)N5CCCC5)cc4)ccc23)n[nH]1)Nc1cccc(F)c1 subject_of_test=HL-60 measured_metric=pIC50 measured=8.97
molecule=O=C(Cc1cc(Nc2ncnc3cc(-c4ccc(S(=O)(=O)N5CC[C@H](F)C5)cc4)ccc23)n[nH]1)Nc1cccc(F)c1 subject_of_test=HL-60 measured_metric=pIC50 measured=8.92
molecule=CN1CCN(C(=O)c2ccc(-c3ccc4c(Nc5cc(CC(=O)Nc6cccc(F)c6)[nH]n5)ncnc4c3)cc2)CC1 subject_of_test=HL-60 measured_metric=pIC50 measured=8.74

## Input For HL-60, provide pIC50 of CC(=O)O[C@H]1C(=O)[C@@]2(C)[C@H]([C@H](OC(=O)c3ccccc3)[C@]3(O)C[C@H](OC(=O)[C@H](O)[C@@H](NC(=O)c4ccccc4)c4ccccc4)C(C)=C1C3(C)C)[C@]1(OC(C)=O)CO[C@@H]1C[C@@H]2O [Taxol, reference compound] please.
## Output 8.67

## Input For HL-60, provide pIC50 of O=C(Cc1cc(Nc2ncnc3cc(-c4ccc(C(=O)N5CCNCC5)cc4)ccc23)n[nH]1)Nc1cccc(F)c1 please.
## Output 8.88

###

- Subject of test: full-length human Aurora A (Homo sapiens, UniProt O14965)
- Sequence (O14965 1-403): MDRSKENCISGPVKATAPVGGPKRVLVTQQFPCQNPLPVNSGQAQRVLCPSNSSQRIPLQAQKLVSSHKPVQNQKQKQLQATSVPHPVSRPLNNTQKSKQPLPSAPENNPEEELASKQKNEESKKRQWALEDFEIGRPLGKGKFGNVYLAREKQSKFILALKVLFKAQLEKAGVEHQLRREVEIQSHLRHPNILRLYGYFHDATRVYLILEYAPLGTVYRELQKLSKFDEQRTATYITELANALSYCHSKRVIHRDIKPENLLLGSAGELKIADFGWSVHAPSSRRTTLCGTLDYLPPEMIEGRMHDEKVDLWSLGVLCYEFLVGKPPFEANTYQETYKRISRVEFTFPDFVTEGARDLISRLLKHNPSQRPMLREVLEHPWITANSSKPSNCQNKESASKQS
Measured metric: pIC50
Bear in mind: pIC50 is minus log10 of a mol/L concentration; give just that figure.

smiles_input=O=C(Cc1cc(Nc2ncnc3cc(-c4ccc(S(=O)(=O)N5CC[C@H](F)C5)cc4)ccc23)n[nH]1)Nc1cccc(F)c1 measured=8.15
smiles_input=O=C(Cc1cc(Nc2ncnc3cc(-c4ccc(C(=O)N5CCN(CCO)CC5)cc4)ccc23)n[nH]1)Nc1cccc(F)c1F measured=8.72
smiles_input=CN1CCN(C(=O)c2ccc(-c3ccc4c(Nc5cc(CC(=O)Nc6cccc(F)c6)[nH]n5)ncnc4c3)cc2)CC1 measured=8.29

## Input Give its pIC50 value. Item: O=C(Cc1cc(Nc2ncnc3ccccc23)n[nH]1)Nc1cccc(F)c1
## Output 5.61
